pIC50 by entry:
target: human Gastric Inhibitory Peptide Receptor (human) (UniProt P48546); assay: FACS competition with GIP-057 on CHO-K1-hGIPR cells; pIC50 category B: 7.1-8.0
Sequence (P48546 22-466 limits assumed): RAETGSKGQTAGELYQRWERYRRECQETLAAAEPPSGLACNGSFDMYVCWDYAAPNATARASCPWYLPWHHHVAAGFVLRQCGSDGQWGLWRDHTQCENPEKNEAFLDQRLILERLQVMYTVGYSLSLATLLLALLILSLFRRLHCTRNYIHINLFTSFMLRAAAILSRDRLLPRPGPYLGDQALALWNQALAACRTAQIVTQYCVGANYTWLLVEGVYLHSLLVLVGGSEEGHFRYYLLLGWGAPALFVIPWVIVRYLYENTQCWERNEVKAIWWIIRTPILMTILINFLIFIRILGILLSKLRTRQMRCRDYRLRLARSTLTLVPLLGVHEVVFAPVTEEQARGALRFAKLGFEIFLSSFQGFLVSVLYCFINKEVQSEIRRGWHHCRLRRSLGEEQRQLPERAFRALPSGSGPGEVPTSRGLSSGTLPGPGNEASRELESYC
*1 amine or outer side, *2 acyl side, *3 side chain or, on linkers, in order; H or OH if unused. Bridges are numbered along the chain shown (N, C = ends). Primed or numbered codes have the meaning given here. Where no end group is shown, it is not given here. [ ]: non-standard residue; d: D form. The star is where a group is joined. tMeBn(DOTA-PP) = mesitylene bridge bearing DOTA via piperazine; APAc″ = 4-amino-1-carboxymethylpiperidine, NC1CCN(CC(=O)*)CC1; dE(AGLU) = D-glutamic acid bearing 1-amino-1-deoxy-D-glucitol; MeO36PEG = monodisperse PEG 36 units conjugated with acetyl; Pro(trans-4-NH2) = O=C([C@@H]1C[C@@H](N[*:3])CN1[*:1])[*:2]; DOTA = O=C(O)CN1CCN(CC(=O)O)CCN(CC(=O)*)CCN(CC(=O)O)CC1; MeO2kDaPEGAc″ = methoxy polydisperse 2 kDa PEG acetyl; 2Lut = 2,6-lutidylidene bridge between two thiols; Trp(5-Cl) = N[C@@H](Cc1c[nH]c2ccc(Cl)cc12)C(=O)O; Pyridine(2,6-diCH2) = c1cc(C[*:1])nc(C[*:2])c1; APAc = 4-amino-1-carboxymethylpiperidine; MeO10kDaPEGAc = polydisperse 10 kDa PEG; Hyp = O=C(O)[C@@H]1C[C@@H](O)CN1; Suc = O=C(CCC(=O)[*:2])[*:1]; Api = NC1(C(=O)O)CCNCC1; Thp = NC1(C(=O)O)CCOCC1

Illustrative cases are given below, each with its answer.
XWXXEXCXLIC (not fully specified; N-term AGLU-Glutar-APAc; Hse; 5Clw; Hyp; leu (D-Leu); thioether cycle [Cys(2Lut)..Cys]; Apc(DOTA-glu(AGLU)); C-term APAc-glu(AGLU)-NH2) :: 7.1 to 8 pic50
{MeO36PEG-APAc}-DW[Trp(5-Cl)][Pro(trans-4-NH2)]E[dL]C[Api](DOTA)LIC-{APAc-dE(AGLU)-NH2} (linker 7-11 via Pyridine(2,6-diCH2)) [MeO36PEG-APAc-Asp-Trp-5Clw-Tap-Glu-leu-[Cys(2Lut)-Apc(DOTA)-Leu-Ile-Cys]-APAc-glu(AGLU)-NH2] :: 7.1 to 8 pic50
{MeO36PEG-APAc″}-DW[Trp(5-Cl)][Hyp]E[dL]C[Api](DOTA)LIC-{dE(AGLU)-NH2} (linker 7-11 via Pyridine(2,6-diCH2)) [MeO36PEG-APAc-Asp-Trp-5Clw-Hyp-Glu-leu-[Cys(2Lut)-Apc(DOTA)-Leu-Ile-Cys]-glu(AGLU)-NH2] :: 7.1 to 8 pic50

For Suc-W[Trp(5-Cl)][Hyp]E[dL]C[Thp]LIC (linker 6-10 via 2Lut; not fully specified (C-terminus); printed as HO-Succinyl-Trp-5Clw-Hyp-Glu-leu-[Cys(2Lut)-Thp-Leu-Ile-Cys]-APAc-lys(MeO2kDaPEGAc)-Lys(DOTA)-NH2) [HO-Succinyl-Trp-5Clw-Hyp-Glu-leu-[Cys(2Lut)-Thp-Leu-Ile-Cys]-APAc-lys(MeO2kDaPEGAc)-Lys(DOTA)-NH2] , what is its reported pIC50?
7.1 to 8 pic50

# input binder: Suc-W[Trp(5-Cl)][Hyp]E[dL]C[Api](MeO2kDaPEGAc″)LIC-{APAc-Lys(DOTA)-NH2} (linker 6-10 via Pyridine(2,6-diCH2)) [HO-Succinyl-Trp-5Clw-Hyp-Glu-leu-[Cys(2Lut)-Apc(MeO2kDaPEGAc)-Leu-Ile-Cys]-APAc-Lys(DOTA)-NH2] ; wanted: its pIC50
7.1 to 8 pic50

Sample Ac-DW[Trp(5-Cl)][Hyp]E[dL]C[Thp]LIC-NH2 (linker 7-11 via tMeBn(DOTA-PP)) [Ac-Asp-Trp-5Clw-Hyp-Glu-leu-[Cys(tMeBn(DOTA-PP))-Thp-Leu-Ile-Cys]-NH2] — what was its pIC50?
7.1 to 8 pic50

Consider the binder Suc-W[Trp(5-Cl)][Hyp]E[dL]C[Api](MeO10kDaPEGAc)LIC-{APAc-Lys(DOTA)-NH2} (linker 6-10 via 2Lut) [HO-Succinyl-Trp-5Clw-Hyp-Glu-leu-[Cys(2Lut)-Apc(MeO10kDaPEGAc)-Leu-Ile-Cys]-APAc-Lys(DOTA)-NH2] and give its measured pIC50.
7.1 to 8 pic50
